# measured_on: ERβ (Homo sapiens)
# Construct: made in house; host or cells: E. coli
# method_summary: Competition with [3H]-17β-estradiol for ERβ ligand binding domain
# settings: receptor selectivity, ratio ERα IC50 / ERβ IC50
Examples of molecules with documented α/β follow.
Output spec: single numeric token, no unit.

// worked examples, α/β included
>  <molecule>
N#Cc1ccc(-c2cc(-c3ccc(O)c(F)c3)nc3ccc(O)cc23)cc1

>  <α/β>
34

$$$$
>  <molecule>
C#Cc1cc(-c2ccc(O)cc2)nc2ccc(O)cc12 [Cpd 14a]

>  <α/β>
20

$$$$
>  <molecule>
C#Cc1cc(-c2ccc(O)c(F)c2)nc2c(Cl)cc(O)cc12

>  <α/β>
50

$$$$

Noted for Oc1ccc(-c2nc3ccc(O)cc3c(Br)c2Cl)cc1 [Cpd 35a] : its α/β reads 62

Noted for Oc1ccc2nc(-c3ccc(O)c(F)c3)cc(-c3nccs3)c2c1 : its α/β reads 10

====

# measured_on: ERβ (Homo sapiens, UniProt Q92731)
# Construct: made in house; host or cells: E. coli
# Sequence (Q92731 264-498 limits assumed): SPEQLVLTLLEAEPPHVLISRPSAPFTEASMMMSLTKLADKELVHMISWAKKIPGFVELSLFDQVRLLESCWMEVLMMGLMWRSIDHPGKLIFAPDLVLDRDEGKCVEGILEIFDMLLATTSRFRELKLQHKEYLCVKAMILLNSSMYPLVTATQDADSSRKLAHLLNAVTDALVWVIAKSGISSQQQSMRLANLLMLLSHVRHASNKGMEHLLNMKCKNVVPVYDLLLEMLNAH
# method_summary: Competition with [3H]-17β-estradiol for ERβ ligand binding domain
# settings: receptor selectivity, ratio ERα IC50 / ERβ IC50
property_measured: α/β
Output spec: single numeric token, no unit.

Summary: Oc1ccc2nc(-c3ccc(O)c(F)c3)cc(I)c2c1 , ERβ (Homo sapiens, UniProt Q92731), α/β = 73

Summary: CC(=O)c1cc(-c2ccc(O)cc2)nc2ccc(O)cc12 [Cpd 16a] , ERβ (Homo sapiens, UniProt Q92731), α/β = 14

Summary: C[Si](C)(C)C#Cc1cc(-c2ccc(O)cc2)nc2ccc(O)cc12 [Cpd 13a] , ERβ (Homo sapiens, UniProt Q92731), α/β = 9

Summary: Oc1ccc(-c2nc3ccc(O)cc3c(-c3ccc(F)cc3)c2Cl)cc1 , ERβ (Homo sapiens, UniProt Q92731), α/β = 1.4

Summary: Oc1ccc2nc(-c3ccc(O)c(F)c3)cc(C#Cc3ccccc3)c2c1 , ERβ (Homo sapiens, UniProt Q92731), α/β = 62

Summary: N#Cc1cc(O)cc2c(Cl)cc(-c3ccc(O)c(F)c3)nc12 , ERβ (Homo sapiens, UniProt Q92731), α/β = 105

Summary: Oc1ccc(-c2ccc3c(Br)c(O)ccc3n2)cc1 [Cpd 32, 5-Bromo-2-(4-hydroxyphenyl)quinolin-6-ol] , ERβ (Homo sapiens, UniProt Q92731), α/β = 13

Summary: Oc1cc(Cl)c2nc(-c3ccc(O)c(F)c3)cc(Br)c2c1 [Cpd 45a] , ERβ (Homo sapiens, UniProt Q92731), α/β = 53

====

# measured_on: ERα (Homo sapiens, UniProt P03372)
# Sequence (P03372 311-547 limits assumed): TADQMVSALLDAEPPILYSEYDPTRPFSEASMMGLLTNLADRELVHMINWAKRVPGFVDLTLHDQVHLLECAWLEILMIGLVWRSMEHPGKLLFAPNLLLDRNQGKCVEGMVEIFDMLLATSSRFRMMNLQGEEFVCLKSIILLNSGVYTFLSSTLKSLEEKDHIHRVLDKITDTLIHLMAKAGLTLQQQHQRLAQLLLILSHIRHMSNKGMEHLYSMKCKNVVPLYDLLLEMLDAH
# method_summary: Competition with [3H]-17β-estradiol for ERα ligand binding domain
# settings: crude E. coli lysate expressing human ERα LBD (D, E, & F); 2 nM [3H]-17β-estradiol; 5-15 hours at room temperature
property_measured: log10 IC50 (log10 of the value in µM)
The figures below represent log10 of IC50, where IC50 is stated in µM.

>  <compound>
CCc1cc(-c2ccc(O)cc2)nc2ccc(O)cc12 [Cpd 12a, 4-Ethyl-2-(4-hydroxyphenyl)quinolin-6-ol]

>  <log10 IC50>
-0.08

$$$$
>  <compound>
Oc1ccc2nc(-c3ccc(O)c(F)c3)cc(I)c2c1

>  <log10 IC50>
-0.44

$$$$
>  <compound>
C#Cc1cc(-c2ccc(O)c(F)c2)nc2c(Cl)cc(O)cc12

>  <log10 IC50>
-1.43

$$$$
>  <compound>
Oc1ccc(-c2cc(Cl)c3cc(O)ccc3n2)cc1

>  <log10 IC50>
-0.67

$$$$
>  <compound>
Oc1ccc2nc(-c3ccc(O)c(F)c3)cc(-c3ccc(F)cc3)c2c1

>  <log10 IC50>
-0.23

$$$$

Noted for N#Cc1cc(-c2ccc(O)c(F)c2)nc2c(Cl)cc(O)cc12 : its log10 IC50 reads -0.72

Noted for Oc1ccc(-c2cc(I)c3cc(O)ccc3n2)cc1 [Cpd 8a, 2-(4-Hydroxyphenyl)-4-iodoquinolin-6-ol] : its log10 IC50 reads -0.99

Noted for CCCCC#Cc1cc(-c2ccc(O)c(F)c2)nc2c(Cl)cc(O)cc12 : its log10 IC50 reads -0.52

Noted for C#Cc1cc(-c2ccc(O)cc2)nc2ccc(O)cc12 [Cpd 14a] : its log10 IC50 reads 0.18

Noted for Oc1ccc(-c2nc3ccc(O)cc3c(Br)c2Cl)cc1 [Cpd 35a] : its log10 IC50 reads -1.11
